Please provide measured NMB-R Transfected Cells [^3H]IP Plus NMB (3 nM) for the entries that follow.
Molecular target: NMB Receptor (Rattus norvegicus)
Construct: a full length NMB-preferring bombesin receptor clone generated from rat esophagus; expressed in transfected cells; host or cells: BALB 3T3 cells
Sequence (P24053 1-390): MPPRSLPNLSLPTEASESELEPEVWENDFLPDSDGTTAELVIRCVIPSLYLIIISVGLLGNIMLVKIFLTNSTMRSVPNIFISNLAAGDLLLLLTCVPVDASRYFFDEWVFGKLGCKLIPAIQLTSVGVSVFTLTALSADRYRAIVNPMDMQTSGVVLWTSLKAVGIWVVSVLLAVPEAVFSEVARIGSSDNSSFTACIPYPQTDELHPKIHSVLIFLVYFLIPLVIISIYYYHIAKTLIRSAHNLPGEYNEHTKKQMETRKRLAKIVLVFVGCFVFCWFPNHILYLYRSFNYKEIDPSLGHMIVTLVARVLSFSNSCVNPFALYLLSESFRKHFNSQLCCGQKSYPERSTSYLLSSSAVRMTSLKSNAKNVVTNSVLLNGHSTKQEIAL
Assay: [3H]inositol phosphates (IP) in NMB-R transfected cells
Type: cell-based
Details: analog 10 µM plus NMB 3 nM; NMB without analog 186 ± 58
Where a SMILES comes first, the peptide text is derived from it. Bridges are numbered along the chain shown (N, C = ends). [ ]: non-standard residue; d: D form. 2Nal = N[C@@H](Cc1ccc2ccccc2c1)C(=O)O; d2Nal = N[C@H](Cc1ccc2ccccc2c1)C(=O)O; Lys(Et2) = CCN(CC)CCCC[C@H](N)C(=O)O
Please respond with the number in dpm x 10^3 and leave the unit unwritten.

So what does the record say about NMB-R Transfected Cells [^3H]IP Plus NMB (3 nM) for CCN(CC)CCCC[C@@H]1NC(=O)[C@@H](Cc2c[nH]c3ccccc23)NC(=O)[C@H](Cc2ccc(O)cc2)NC(=O)[C@@H](NC(=O)[C@H](N)Cc2ccccc2)CSSC[C@@H](C(=O)N[C@@H](Cc2ccc3ccccc3c2)C(N)=O)NC(=O)[C@H]([C@@H](C)O)NC1=O [Analog #16] (H-[dF]CY[dW][Lys(Et2)]TC[2Nal]-NH2; disulfide 2-7; N-terminus assumed) ? 73

So what does the record say about NMB-R Transfected Cells [^3H]IP Plus NMB (3 nM) for C[C@@H](O)[C@H](NC(=O)[C@@H]1CSSC[C@H](NC(=O)[C@H](N)Cc2ccc3ccccc3c2)C(=O)N[C@@H](Cc2ccc(O)cc2)C(=O)N[C@H](Cc2c[nH]c3ccccc23)C(=O)N[C@@H](CCCCN)C(=O)N[C@@H]([C@@H](C)O)C(=O)N1)C(N)=O [Analog #6, [Thr^6,8]-cyclo-SS-octa] ? 188

So what does the record say about NMB-R Transfected Cells [^3H]IP Plus NMB (3 nM) for NCCCC[C@@H]1NC(=O)[C@@H](Cc2c[nH]c3ccccc23)NC(=O)[C@H](Cc2ccc(O)cc2)NC(=O)[C@@H](NC(=O)[C@H](N)Cc2ccc3ccccc3c2)CSSC[C@@H](C(=O)N[C@@H](Cc2ccc3ccccc3c2)C(N)=O)NC(=O)[C@H](Cc2ccccc2)NC1=O [Analog #13, [Phe^6]-cyclo SS-octa] (H-[d2Nal]CY[dW]KFC[2Nal]-NH2; disulfide 2-7; N-terminus assumed) ? 9

* * *

target: GRP Receptor (Rattus norvegicus, UniProt P52500); construct: from tissue; host or cells: dispersed pancreatic acini; assay: Amylase release from rat pancreatic acini; assay type: cell-based; settings: analog 10 µM plus Bn 0.3 nM; Bn without analog 15 ± 1
Sequence (P52500 whole entry): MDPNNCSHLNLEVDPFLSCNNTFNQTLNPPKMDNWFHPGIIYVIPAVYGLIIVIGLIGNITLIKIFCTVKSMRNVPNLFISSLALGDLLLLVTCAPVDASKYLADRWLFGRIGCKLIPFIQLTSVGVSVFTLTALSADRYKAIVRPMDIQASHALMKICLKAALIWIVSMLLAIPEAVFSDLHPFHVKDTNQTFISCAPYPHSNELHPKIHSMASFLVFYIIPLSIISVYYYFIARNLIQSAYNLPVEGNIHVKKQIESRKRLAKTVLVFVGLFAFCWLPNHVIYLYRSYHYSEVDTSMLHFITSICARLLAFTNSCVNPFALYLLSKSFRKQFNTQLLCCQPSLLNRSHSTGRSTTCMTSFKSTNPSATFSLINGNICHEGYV
Where a SMILES comes first, the peptide text is derived from it. Bridges are numbered along the chain shown (N, C = ends). [ ]: non-standard residue; d: D form. 2Nal = N[C@@H](Cc1ccc2ccccc2c1)C(=O)O; Lys(Et2) = CCN(CC)CCCC[C@H](N)C(=O)O
Measurement name: Rat Pancreatic Acini Amylase Release Plus Bn(0.3 nM) (% total)
Please respond with the number in % total and leave the unit unwritten.

Provide the documented Rat Pancreatic Acini Amylase Release Plus Bn(0.3 nM) with GRP Receptor (Rattus norvegicus, UniProt P52500) as the system for CC(C)[C@@H]1NC(=O)[C@H](CCCCN)NC(=O)[C@@H](Cc2c[nH]c3ccccc23)NC(=O)[C@H](Cc2ccc(O)cc2)NC(=O)[C@@H](NC(=O)[C@H](N)Cc2ccccc2)CSSC[C@@H](C(=O)N[C@@H](Cc2ccc3ccccc3c2)C(N)=O)NC1=O [Analog #4, [D-Phe^1]-cyclo SS-octa] (H-[dF]CY[dW]KVC[2Nal]-NH2; disulfide 2-7; N-terminus assumed) 14

Provide the documented Rat Pancreatic Acini Amylase Release Plus Bn(0.3 nM) with GRP Receptor (Rattus norvegicus, UniProt P52500) as the system for CCN(CC)CCCC[C@@H]1NC(=O)[C@@H](Cc2c[nH]c3ccccc23)NC(=O)[C@H](Cc2ccc(O)cc2)NC(=O)[C@@H](NC(=O)[C@H](N)Cc2ccccc2)CSSC[C@@H](C(=O)N[C@@H](Cc2ccc3ccccc3c2)C(N)=O)NC(=O)[C@H]([C@@H](C)O)NC1=O [Analog #16] (H-[dF]CY[dW][Lys(Et2)]TC[2Nal]-NH2; disulfide 2-7; N-terminus assumed) 12

Provide the documented Rat Pancreatic Acini Amylase Release Plus Bn(0.3 nM) with GRP Receptor (Rattus norvegicus, UniProt P52500) as the system for C[C@@H](O)[C@@H]1NC(=O)[C@H](CCCCN)NC(=O)[C@@H](Cc2c[nH]c3ccccc23)NC(=O)[C@H](Cc2ccc(O)cc2)NC(=O)[C@@H](NC(=O)[C@H](N)Cc2ccccc2)CSSC[C@@H](C(=O)N[C@@H](Cc2ccc3ccccc3c2)C(N)=O)NC1=O [Analog #7, [D-Phe^1, Thr^6]-cyclo-SS-octa] (H-[dF]CY[dW]KTC[2Nal]-NH2; disulfide 2-7; N-terminus assumed) 16

* * *

biological target: GRP Receptor (Rattus norvegicus, UniProt P52500); construct: from tissue; host or cells: dispersed pancreatic acini; test: Amylase release from rat pancreatic acini; format: cell-based; details: analog 10 µM plus Bn 0.3 nM; Bn without analog 15 ± 1
Where a SMILES comes first, the peptide text is derived from it. Bridges are numbered along the chain shown (N, C = ends). [ ]: non-standard residue; d: D form. 2Nal = N[C@@H](Cc1ccc2ccccc2c1)C(=O)O; d2Nal = N[C@H](Cc1ccc2ccccc2c1)C(=O)O; Lys(iPr) = CC(C)NCCCC[C@H](N)C(=O)O
Please provide measured Rat Pancreatic Acini Amylase Release Plus Bn(0.3 nM) for the entries that follow.
Include the unit right after the number.

So what does the record say about Rat Pancreatic Acini Amylase Release Plus Bn(0.3 nM) for CC(C)[C@@H]1NC(=O)[C@H](CCCCN)NC(=O)[C@@H](Cc2c[nH]c3ccccc23)NC(=O)[C@H](Cc2ccc(O)cc2)NC(=O)[C@@H](NC(=O)[C@H](N)Cc2ccc3ccccc3c2)CSSC[C@@H](C(=O)N[C@@H](Cc2ccc3ccccc3c2)C(N)=O)NC1=O [Analog #1, D-Nal-Cys-Tyr-D-Trp-Lys-Val-Cys-Nal-NH2] (H-[d2Nal]CY[dW]KVC[2Nal]-NH2; disulfide 2-7; N-terminus assumed) ? 15 ± 2 % total

So what does the record say about Rat Pancreatic Acini Amylase Release Plus Bn(0.3 nM) for CC(C)[C@@H]1NC(=O)[C@H](CCCCN)NC(=O)[C@@H](Cc2c[nH]c3ccccc23)NC(=O)[C@H](Cc2ccc(O)cc2)NC(=O)[C@@H](NC(=O)[C@H](N)Cc2ccc3ccccc3c2)CSSC[C@@H](C(=O)N[C@H](Cc2ccc3ccccc3c2)C(N)=O)NC1=O [Analog #8, [D-Nal^8]-cyclo SS-octa] (H-[d2Nal]CY[dW]KVC[d2Nal]-NH2; disulfide 2-7; N-terminus assumed) ? 14 ± 1 % total

So what does the record say about Rat Pancreatic Acini Amylase Release Plus Bn(0.3 nM) for CC(C)[C@@H]1NC(=O)[C@H](Cc2c[nH]cn2)NC(=O)[C@@H](Cc2c[nH]c3ccccc23)NC(=O)[C@H](Cc2ccc(O)cc2)NC(=O)[C@@H](NC(=O)[C@H](N)Cc2ccc3ccccc3c2)CSSC[C@@H](C(=O)N[C@@H](Cc2ccc3ccccc3c2)C(N)=O)NC1=O [Analog #14, [His^5]-cyclo SS-octa] (H-[d2Nal]CY[dW]HVC[2Nal]-NH2; disulfide 2-7; N-terminus assumed) ? 13 ± 1 % total

So what does the record say about Rat Pancreatic Acini Amylase Release Plus Bn(0.3 nM) for NCCCC[C@@H]1NC(=O)[C@@H](Cc2c[nH]c3ccccc23)NC(=O)[C@H](Cc2ccc(O)cc2)NC(=O)[C@@H](NC(=O)[C@H](N)Cc2ccc3ccccc3c2)CSSC[C@@H](C(=O)N[C@@H](Cc2ccc3ccccc3c2)C(N)=O)NC(=O)[C@H](Cc2ccccc2)NC1=O [Analog #13, [Phe^6]-cyclo SS-octa] (H-[d2Nal]CY[dW]KFC[2Nal]-NH2; disulfide 2-7; N-terminus assumed) ? 14 ± 1 % total

So what does the record say about Rat Pancreatic Acini Amylase Release Plus Bn(0.3 nM) for CC(C)NCCCC[C@@H]1NC(=O)[C@@H](Cc2c[nH]c3ccccc23)NC(=O)[C@H](Cc2ccc(O)cc2)NC(=O)[C@@H](NC(=O)[C@H](N)Cc2ccccc2)CSSC[C@@H](C(=O)N[C@@H](Cc2ccc3ccccc3c2)C(N)=O)NC(=O)[C@H]([C@@H](C)O)NC1=O [Analog #15] (H-[dF]CY[dW][Lys(iPr)]TC[2Nal]-NH2; disulfide 2-7; N-terminus assumed) ? 13 ± 2 % total

So what does the record say about Rat Pancreatic Acini Amylase Release Plus Bn(0.3 nM) for C[C@@H](O)[C@H](NC(=O)[C@@H]1CSSC[C@H](NC(=O)[C@H](N)Cc2ccc3ccccc3c2)C(=O)N[C@@H](Cc2ccc(O)cc2)C(=O)N[C@H](Cc2c[nH]c3ccccc23)C(=O)N[C@@H](CCCCN)C(=O)N[C@@H]([C@@H](C)O)C(=O)N1)C(N)=O [Analog #6, [Thr^6,8]-cyclo-SS-octa] ? 14 ± 2 % total

So what does the record say about Rat Pancreatic Acini Amylase Release Plus Bn(0.3 nM) for CC(C)[C@@H]1NC(=O)[C@H](CCCCN)NC(=O)[C@@H](Cc2ccc3ccccc3c2)NC(=O)[C@H](Cc2ccc(O)cc2)NC(=O)[C@@H](NC(=O)[C@H](N)Cc2ccc3ccccc3c2)CSSC[C@@H](C(=O)N[C@@H](Cc2ccc3ccccc3c2)C(N)=O)NC1=O [Analog #17, [D-Nal^4]-cyclo SS-octa] (H-[d2Nal]CY[d2Nal]KVC[2Nal]-NH2; disulfide 2-7; N-terminus assumed) ? 19 ± 1 % total

So what does the record say about Rat Pancreatic Acini Amylase Release Plus Bn(0.3 nM) for CC(C)[C@@H]1NC(=O)[C@H](CCCCN)NC(=O)[C@@H](Cc2c[nH]c3ccccc23)NC(=O)[C@H](Cc2ccc(O)cc2)NC(=O)[C@@H](NC(=O)[C@H](N)Cc2ccc3ccccc3c2)CSSC[C@H](C(=O)N[C@@H](Cc2ccc3ccccc3c2)C(N)=O)NC1=O [Analog #11, [D-Cys^7]-cyclo SS-octa] (H-[d2Nal]CY[dW]KV[dC][2Nal]-NH2; disulfide 2-7; N-terminus assumed) ? 14 ± 1 % total

So what does the record say about Rat Pancreatic Acini Amylase Release Plus Bn(0.3 nM) for C[C@@H](O)[C@H](NC(=O)[C@@H]1CSSC[C@H](NC(=O)[C@H](N)Cc2ccc3ccccc3c2)C(=O)N[C@@H](Cc2ccc(O)cc2)C(=O)N[C@H](Cc2c[nH]c3ccccc23)C(=O)N[C@@H](CCCCN)C(=O)N[C@@H](Cc2ccc3ccccc3c2)C(=O)N1)C(N)=O [Analog #2, [Nal^6,Thr^8]-cyclo SS-octa] ? 13 ± 1 % total

So what does the record say about Rat Pancreatic Acini Amylase Release Plus Bn(0.3 nM) for CC(C)[C@@H]1NC(=O)[C@H](CCCCN)NC(=O)[C@@H](Cc2c[nH]c3ccccc23)NC(=O)[C@H](Cc2ccc(O)cc2)NC(=O)[C@@H](NC(=O)[C@H](N)Cc2c[nH]c3ccccc23)CSSC[C@@H](C(=O)N[C@@H](Cc2ccc3ccccc3c2)C(N)=O)NC1=O [Analog #12, [D-Trp^1]-cyclo SS-octa] (H-[dW]CY[dW]KVC[2Nal]-NH2; disulfide 2-7; N-terminus assumed) ? 13 ± 1 % total

So what does the record say about Rat Pancreatic Acini Amylase Release Plus Bn(0.3 nM) for CC(C)[C@@H]1NC(=O)[C@H](CCCCN)NC(=O)[C@@H](Cc2c[nH]c3ccccc23)NC(=O)[C@H](Cc2ccc(O)cc2)NC(=O)[C@H](NC(=O)[C@H](N)Cc2ccc3ccccc3c2)CSSC[C@@H](C(=O)N[C@@H](Cc2ccc3ccccc3c2)C(N)=O)NC1=O [Analog #10, [D-Cys^2]-cyclo SS-octa] (H-[d2Nal][dC]Y[dW]KVC[2Nal]-NH2; disulfide 2-7; N-terminus assumed) ? 16 ± 1 % total

So what does the record say about Rat Pancreatic Acini Amylase Release Plus Bn(0.3 nM) for CC(C)[C@@H]1NC(=O)[C@H](CCCCN)NC(=O)[C@@H](Cc2c[nH]c3ccccc23)NC(=O)[C@H](Cc2ccc(O)cc2)NC(=O)[C@@H](NC(=O)[C@@H](N)Cc2ccc3ccccc3c2)CSSC[C@@H](C(=O)N[C@H](Cc2ccc3ccccc3c2)C(N)=O)NC1=O [Analog #9, [Nal^1,D-Nal^8]-cyclo SS-octa] (H-[2Nal]CY[dW]KVC[d2Nal]-NH2; disulfide 2-7; N-terminus assumed) ? 16 ± 1 % total
